# tgt: Hepatitis C virus serine protease, NS3/NS4A (Hepatitis C virus, UniProt A3EZI9+D2K2A8)
# Sequence (D2K2A8 whole entry): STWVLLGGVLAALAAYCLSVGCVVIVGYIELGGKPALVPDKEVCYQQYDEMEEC
# Sequence (A3EZI9 whole entry): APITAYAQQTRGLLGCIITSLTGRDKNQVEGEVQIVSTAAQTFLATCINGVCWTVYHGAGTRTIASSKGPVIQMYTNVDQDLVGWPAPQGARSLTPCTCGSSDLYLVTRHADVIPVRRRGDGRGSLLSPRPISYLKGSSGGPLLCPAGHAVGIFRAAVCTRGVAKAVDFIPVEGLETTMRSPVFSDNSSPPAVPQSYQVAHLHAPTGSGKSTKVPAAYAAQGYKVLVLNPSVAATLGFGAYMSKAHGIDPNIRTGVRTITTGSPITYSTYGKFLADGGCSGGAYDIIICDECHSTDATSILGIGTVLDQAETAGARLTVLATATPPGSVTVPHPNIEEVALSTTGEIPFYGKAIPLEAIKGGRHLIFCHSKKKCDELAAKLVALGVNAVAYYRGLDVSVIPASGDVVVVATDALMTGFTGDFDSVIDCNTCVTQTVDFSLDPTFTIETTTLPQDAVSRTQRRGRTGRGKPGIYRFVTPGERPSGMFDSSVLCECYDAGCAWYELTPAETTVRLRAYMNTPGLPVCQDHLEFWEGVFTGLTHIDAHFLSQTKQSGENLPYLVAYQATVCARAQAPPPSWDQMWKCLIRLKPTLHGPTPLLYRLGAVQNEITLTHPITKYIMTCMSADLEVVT
# assay.info: Inhibition of HCV genotype H 1a NS3/4A protease
# Assay type: protein-complex assay
So I've got a bunch of molecules here, and I need their pKi values.
In simple prose, pKi is minus the logarithm base ten of a concentration in moles per litre.

Record CC(C)[C@H](NC(=O)NC(C)(C)C)C(=O)N1C[C@H]2[C@@H](C1C(=O)N[C@@H](CC1CC1)C(=O)C(N)=O)C2(C)C (stereo partly drawn) ; system Hepatitis C virus serine protease, NS3/NS4A (Hepatitis C virus, UniProt A3EZI9+D2K2A8); pKi = 7.00

Recorded pKi for CC(C)(C)OC(=O)NC(C(=O)N1C[C@H]2[C@@H](C1C(=O)N[C@@H](CC1CCCC1)C(=O)C(N)=O)C2(C)C)C1CCCCC1 (stereo partly drawn) on Hepatitis C virus serine protease, NS3/NS4A (Hepatitis C virus, UniProt A3EZI9+D2K2A8) was 6.82

Log: Hepatitis C virus serine protease, NS3/NS4A (Hepatitis C virus, UniProt A3EZI9+D2K2A8), molecule CC(C)(C)NC(=O)NC(C(=O)N1C[C@H]2[C@@H](C1C(=O)NC(C(=O)C(N)=O)C1CC1)C2(C)C)C(C)(C)C (stereo partly drawn) , pKi = 5.80

Readout pKi for CC(C)(C)NC(=O)NC(C(=O)N1C[C@H]2[C@@H](C1C(=O)N[C@@H](CC1CC(F)(F)C1)C(=O)C(N)=O)C2(C)C)C(C)(C)C (stereo partly drawn) , test system Hepatitis C virus serine protease, NS3/NS4A (Hepatitis C virus, UniProt A3EZI9+D2K2A8), was 6.94

Lab note: molecule CC(C)(C)OC(=O)NC(C(=O)N1C[C@H]2[C@@H](C1C(=O)N[C@@H](CC1CCC1)C(=O)C(N)=O)C2(C)C)C1CCCCC1 (stereo partly drawn) tested on Hepatitis C virus serine protease, NS3/NS4A (Hepatitis C virus, UniProt A3EZI9+D2K2A8); recorded pKi was 7.60

Sample CC(C)(C)NC(=O)NC(C(=O)N1C[C@H]2[C@@H](C1C(=O)NC(C(=O)C(N)=O)C1CCC1)C2(C)C)C(C)(C)C (stereo partly drawn) , system: Hepatitis C virus serine protease, NS3/NS4A (Hepatitis C virus, UniProt A3EZI9+D2K2A8). Its pKi is 7.00

Form field pKi for item CC(C)OC(=O)NC(C(=O)N1C[C@H]2[C@@H](C1C(=O)N[C@@H](CC1CC1)C(=O)C(N)=O)C2(C)C)C1CCCCC1 (stereo partly drawn) on Hepatitis C virus serine protease, NS3/NS4A (Hepatitis C virus, UniProt A3EZI9+D2K2A8): 7.22

Form field, pKi with Hepatitis C virus serine protease, NS3/NS4A (Hepatitis C virus, UniProt A3EZI9+D2K2A8), item CC(C)(C)NC(=O)NC(C(=O)N1C[C@@H]2OC(C)(C)[C@@H]2C1C(=O)N[C@@H](CC1CC1)C(=O)C(N)=O)C(C)(C)C (stereo partly drawn) : 6.02

The molecule CC(C)(C)NC(=O)NC(C(=O)N1C[C@H]2[C@@H](C1C(=O)N[C@@H](CC1CC1)C(=O)C(N)=O)C2(C)C)C(C)(C)C (stereo partly drawn) , when measured on Hepatitis C virus serine protease, NS3/NS4A (Hepatitis C virus, UniProt A3EZI9+D2K2A8), yielded pKi of 7.89

// assay Hepatitis C virus serine protease, NS3/NS4A (Hepatitis C virus, UniProt A3EZI9+D2K2A8), entry CCC[C@H](NC(=O)C1[C@@H]2[C@H](CN1C(=O)C(NC(=O)OC(C)(C)C)C1CCCCC1)C2(C)C)C(=O)C(N)=O (stereo partly drawn) , pKi value = 7.00

Param item: CCC(NC(=O)C1[C@@H]2[C@H](CN1C(=O)C(NC(=O)OC(C)(C)C)C1CCCCC1)C2(C)C)C(=O)C(N)=O (stereo partly drawn) ; param system: Hepatitis C virus serine protease, NS3/NS4A (Hepatitis C virus, UniProt A3EZI9+D2K2A8); output pKi: 6.13

Hey, Hepatitis C virus serine protease, NS3/NS4A (Hepatitis C virus, UniProt A3EZI9+D2K2A8) data for CCC[C@H](NC(=O)C1[C@@H]2[C@H](CN1C(=O)C(NC(=O)NC(C)(C)C)C1CCCCC1)C2(C)C)C(=O)C(N)=O (stereo partly drawn) : pKi came out at 7.27

---

# tgt: Hepatitis C virus serine protease, NS3/NS4A (Hepatitis C virus, UniProt A3EZI9+D2K2A8)
# assay.info: Inhibition of HCV genotype H 1a NS3/4A protease
observation.type: Ki

The measured Ki associated with CC(C)C[C@H](NC(=O)C1[C@@H]2[C@H](CN1C(=O)C(NC(=O)OC(C)(C)C)C1CCCCC1)C2(C)C)C(=O)C(N)=O (some centres undefined) reads 400 nM

Looking up COC(=O)NC(C(=O)N1C[C@H]2[C@@H](C1C(=O)N[C@@H](CC1CC1)C(=O)C(N)=O)C2(C)C)C1CCCCC1 (some centres undefined) , I see its Ki listed as 800 nM

# Ki (compound: CC(C)(C)NC(=O)NC(C(=O)N1C[C@H]2[C@@H](C1C(=O)N[C@@H](CC1CCC1)C(=O)C(N)=O)C2(Cl)Cl)C(C)(C)C (some centres undefined) ) is 19 nM

Memo: CC(C)(C)NC(=O)NC(C(=O)N1C[C@H]2[C@@H](C1C(=O)NC(C(=O)C(N)=O)C1CCCC1)C2(C)C)C(C)(C)C (some centres undefined) , reported Ki: 1800 nM

---

Task for the reader: assign each of the following compounds its reported pKi.
# tgt: Hepatitis C virus serine protease, NS3/NS4A (Hepatitis C virus, UniProt A3EZI9+D2K2A8)
# assay.info: Inhibition of HCV genotype H 1a NS3/4A protease
In simple prose, pKi is minus the logarithm base ten of a concentration in moles per litre.

So for CC(C)(C)NC(=O)NC(C(=O)N1CCC[C@H]1C(=O)N[C@@H](CC1CCC1)C(=O)C(N)=O)C(C)(C)C (stereo partly drawn) , the logged pKi turned out to be 5.30

The compound CC(C)(C)NC(=O)NC(C(=O)N1C[C@H]2[C@@H](C1C(=O)N[C@@H](CC1CCC1)C(=O)C(N)=O)C2(C)C)C(C)(C)C (stereo partly drawn) showed pKi equal to 7.85

Input CCOC(=O)NC(C(=O)N1C[C@H]2[C@@H](C1C(=O)N[C@@H](CC1CC1)C(=O)C(N)=O)C2(C)C)C1CCCCC1 (stereo partly drawn) . Output pKi: 6.64

Per the record, CC(C)(C)OC(=O)NC(C(=O)N1C[C@H]2[C@@H](C1C(=O)N[C@@H](CC1CC1)C(=O)C(N)=O)C2(C)C)C1CCCCC1 (stereo partly drawn) has pKi of 7.60

// CC(C)(C)NC(=O)NC(C(=O)N1C[C@@H]2OC(C)(C)C[C@@H]2C1C(=O)N[C@@H](CC1CCC1)C(=O)C(N)=O)C(C)(C)C (stereo partly drawn) : pKi value = 6.30

pKi recorded for this compound, CC(=O)N[C@H](C(=O)NC(C(=O)N1C[C@H]2[C@@H](C1C(=O)N[C@@H](CC1CC1)C(=O)C(N)=O)C2(C)C)C1CCCCC1)C(C)C (stereo partly drawn) , is 7.17

Query CCCC[C@H](NC(=O)C1[C@@H]2[C@H](CN1C(=O)C(NC(=O)OC(C)(C)C)C(C)(C)C)C2(C)C)C(=O)C(N)=O (stereo partly drawn) yields pKi of 6.44

Given item CC(=O)N[C@H](C(=O)NC(C(=O)N1C[C@H]2[C@@H](C1C(=O)N[C@@H](CC1CCC1)C(=O)C(N)=O)C2(C)C)C(C)(C)C)C(C)C (stereo partly drawn) , the value recorded as its pKi is 7.42

// CC(C)(C)NC(=O)NC(C(=O)N1C[C@H]2[C@@H](C1C(=O)N[C@@H](CC1CC1)C(=O)C(N)=O)C2(C)C)C1CCCCC1 (stereo partly drawn) : pKi value = 7.30

pKi measured on CC(C)(C)NC(=O)NC(C(=O)N1C[C@H]2[C@@H](C1C(=O)N[C@@H](CC1CC1(F)F)C(=O)C(N)=O)C2(C)C)C(C)(C)C (stereo partly drawn) = 7.30

// pKi value for CC(C)C[C@H](NC(=O)C(NC(=O)OC(C)(C)C)C(C)(C)C)C(=O)N[C@@H](CC1CCC1)C(=O)C(N)=O (stereo partly drawn) : 4.82

---

I'd be grateful if you could share measured pKi for these entries.
# tgt: Hepatitis C virus serine protease, NS3/NS4A (Hepatitis C virus, UniProt A3EZI9+D2K2A8)
# assay.info: Inhibition of HCV genotype H 1a NS3/4A protease
Value format note: pKi is -log10 of concentration (mol/L); just state the number.

For this compound ( CC(C)(C)NC(=O)NC(C(=O)N1C[C@H]2[C@@H](C1C(=O)N[C@@H](CC1CCC1)C(=O)C(N)=O)C2(F)F)C(C)(C)C (stereo partly drawn) ), measured pKi is 6.85

In plain terms, CCC[C@H](NC(=O)C1[C@@H]2[C@H](CN1C(=O)C(NC(=O)OC(C)(C)C)C(C)(C)C)C2(C)C)C(=O)C(N)=O (stereo partly drawn) has a documented pKi of 6.66

For this compound ( CC(C)C[C@H](NC(=O)C1[C@@H]2[C@H](CN1C(=O)C(NC(=O)OC(C)(C)C)C(C)(C)C)C2(C)C)C(=O)C(N)=O (stereo partly drawn) ), measured pKi is 6.32
